Biological target: T1, HCV Core1-169 recombinant antigen (hepatitis C virus (HCV-1), UniProt P26664 1-169)
T1 sequence: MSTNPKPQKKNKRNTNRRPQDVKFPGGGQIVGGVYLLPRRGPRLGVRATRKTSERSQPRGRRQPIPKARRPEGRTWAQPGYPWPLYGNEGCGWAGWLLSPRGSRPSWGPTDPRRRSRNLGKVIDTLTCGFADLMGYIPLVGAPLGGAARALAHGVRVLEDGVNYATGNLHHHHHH
Experiment: sandwich EIA, 25 ng/ml core1-169; capture mAb 208A-293

Binder | OD492 nm / OD492
208B-612-226 monoclonal antibody (antibody, V domains shown) VH: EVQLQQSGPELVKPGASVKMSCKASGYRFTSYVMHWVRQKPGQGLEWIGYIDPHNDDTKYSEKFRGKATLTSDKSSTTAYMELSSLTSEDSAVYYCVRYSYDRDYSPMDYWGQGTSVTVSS VL: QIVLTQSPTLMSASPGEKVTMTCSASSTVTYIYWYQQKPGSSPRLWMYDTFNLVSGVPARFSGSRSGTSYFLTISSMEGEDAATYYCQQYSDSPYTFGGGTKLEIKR | 0.28
208B-395-334 monoclonal antibody (antibody, V domains shown) VH: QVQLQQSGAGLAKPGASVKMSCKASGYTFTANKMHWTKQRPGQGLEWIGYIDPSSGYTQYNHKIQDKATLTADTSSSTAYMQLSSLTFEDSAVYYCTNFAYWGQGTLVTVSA VL: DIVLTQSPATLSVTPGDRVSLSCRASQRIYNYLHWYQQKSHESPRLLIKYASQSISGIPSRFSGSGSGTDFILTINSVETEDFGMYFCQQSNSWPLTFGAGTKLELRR | 0.26
HCV 208A-692 monoclonal antibody (antibody, V domains shown) VH: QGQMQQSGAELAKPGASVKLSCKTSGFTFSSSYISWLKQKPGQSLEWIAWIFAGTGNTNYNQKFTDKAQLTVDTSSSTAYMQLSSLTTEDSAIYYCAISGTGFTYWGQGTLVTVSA VL: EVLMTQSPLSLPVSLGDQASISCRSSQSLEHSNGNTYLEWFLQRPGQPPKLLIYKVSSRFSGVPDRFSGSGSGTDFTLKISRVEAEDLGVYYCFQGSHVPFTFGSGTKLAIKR | 0.51
208A-207-271 monoclonal antibody (antibody, V domains shown) VH: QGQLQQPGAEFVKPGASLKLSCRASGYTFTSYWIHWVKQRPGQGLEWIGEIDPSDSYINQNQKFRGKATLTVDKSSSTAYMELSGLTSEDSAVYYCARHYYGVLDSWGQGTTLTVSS VL: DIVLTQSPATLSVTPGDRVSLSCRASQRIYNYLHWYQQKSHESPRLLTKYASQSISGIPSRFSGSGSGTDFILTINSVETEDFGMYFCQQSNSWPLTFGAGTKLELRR | 0.42
HCV 208B-1096 monoclonal antibody (antibody, V domains shown) VH: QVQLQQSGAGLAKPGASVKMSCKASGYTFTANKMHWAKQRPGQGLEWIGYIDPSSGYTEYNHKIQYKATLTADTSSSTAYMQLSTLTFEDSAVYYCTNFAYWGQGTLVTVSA VL: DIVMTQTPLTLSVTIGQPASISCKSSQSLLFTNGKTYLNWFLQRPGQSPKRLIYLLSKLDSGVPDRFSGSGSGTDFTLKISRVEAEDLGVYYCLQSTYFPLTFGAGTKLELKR | 0.24
HCV 208A-293 monoclonal antibody (antibody, V domains shown) VH: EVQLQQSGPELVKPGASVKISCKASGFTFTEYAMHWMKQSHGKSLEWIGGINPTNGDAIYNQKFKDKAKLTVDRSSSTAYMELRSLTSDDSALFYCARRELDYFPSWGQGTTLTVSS VL: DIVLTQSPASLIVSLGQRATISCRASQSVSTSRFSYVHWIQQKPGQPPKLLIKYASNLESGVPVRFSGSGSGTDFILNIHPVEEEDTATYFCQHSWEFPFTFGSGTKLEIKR | 0.49
HCV 208A-557 monoclonal antibody (antibody, V domains shown) VH: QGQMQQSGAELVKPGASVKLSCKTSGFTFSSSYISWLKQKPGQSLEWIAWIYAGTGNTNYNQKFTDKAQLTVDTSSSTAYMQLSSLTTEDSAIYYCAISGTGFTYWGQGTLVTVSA VL: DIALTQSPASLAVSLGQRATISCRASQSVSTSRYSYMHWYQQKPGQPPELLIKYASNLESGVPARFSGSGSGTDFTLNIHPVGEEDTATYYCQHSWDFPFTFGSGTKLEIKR | 0.41
